Overview of recorded MFI for various binders
Assayed target: T1, hFcRn on hFcRn-expressing HEK293 cells (human, UniProt P55899 24-365; P61769 21-119)
T1 construct: whole, on cells; also called hFcRn HEK293
T1 sequence (P55899 24-365 limits assumed, chain 1 of 2): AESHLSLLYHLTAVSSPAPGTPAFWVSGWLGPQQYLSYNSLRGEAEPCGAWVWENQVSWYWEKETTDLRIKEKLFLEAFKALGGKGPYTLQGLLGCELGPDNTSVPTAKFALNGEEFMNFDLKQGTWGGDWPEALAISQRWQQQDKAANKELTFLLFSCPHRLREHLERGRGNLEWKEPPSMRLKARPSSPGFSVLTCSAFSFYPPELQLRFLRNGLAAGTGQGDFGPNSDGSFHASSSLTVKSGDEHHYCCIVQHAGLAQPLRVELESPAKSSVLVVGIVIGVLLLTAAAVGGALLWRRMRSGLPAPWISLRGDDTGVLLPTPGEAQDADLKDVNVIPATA
T1 sequence (P61769 21-119 limits assumed, chain 2 of 2): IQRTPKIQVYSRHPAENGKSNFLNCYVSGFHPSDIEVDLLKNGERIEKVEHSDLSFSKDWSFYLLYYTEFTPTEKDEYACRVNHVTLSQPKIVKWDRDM
Assay text: FACS on hFcRn HEK293 cells, 10 nM antibody, pH 7.4
Please respond with the number in MFI and leave the unit unwritten.

Item HL161AN variant No. 21 (LC:N25Q, HC:C32Y Q82T) (antibody, human IgG1, V domains shown, Variable domains only) VL: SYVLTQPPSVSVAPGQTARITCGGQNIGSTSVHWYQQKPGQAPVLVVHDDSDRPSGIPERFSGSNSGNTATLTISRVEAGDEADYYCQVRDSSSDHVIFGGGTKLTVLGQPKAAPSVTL VH: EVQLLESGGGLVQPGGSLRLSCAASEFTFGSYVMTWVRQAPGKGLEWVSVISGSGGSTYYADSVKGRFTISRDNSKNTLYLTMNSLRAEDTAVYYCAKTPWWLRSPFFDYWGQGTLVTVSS has what recorded MFI?
6030

Param item = HL161AN variant No. 6 (LC:N25S, HC:C32S Q82S) (antibody, human IgG1, V domains shown, Variable domains only) VL: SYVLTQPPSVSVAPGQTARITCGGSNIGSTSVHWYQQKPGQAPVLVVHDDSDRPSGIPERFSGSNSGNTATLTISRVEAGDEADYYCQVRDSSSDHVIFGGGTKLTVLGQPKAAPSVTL VH: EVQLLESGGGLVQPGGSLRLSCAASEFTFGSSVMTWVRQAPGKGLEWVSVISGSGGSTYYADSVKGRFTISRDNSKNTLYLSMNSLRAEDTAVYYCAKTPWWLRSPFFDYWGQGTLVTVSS ; retrieve measured MFI.
6920

Endpoint output: MFI of HL161AN variant No. 20 (LC:N25Q, HC:C32Y Q82S) (antibody, human IgG1, V domains shown, Variable domains only) VL: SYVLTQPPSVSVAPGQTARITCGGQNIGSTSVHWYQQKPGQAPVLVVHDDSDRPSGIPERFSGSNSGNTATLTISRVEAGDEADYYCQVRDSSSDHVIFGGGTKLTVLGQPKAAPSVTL VH: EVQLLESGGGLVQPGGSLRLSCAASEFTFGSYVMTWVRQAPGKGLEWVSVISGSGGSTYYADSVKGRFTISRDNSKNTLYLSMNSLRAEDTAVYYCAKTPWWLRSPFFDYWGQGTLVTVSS . Value?
5840

Ref: patent US20230391876A1
